- protocolSummary: In vitro toxicity against burst forming unit erythroid (BFU-E)
- testParameters: human, burst forming unit erythroid (BFU-E) progenitor cells
observationType: IC50 (µM)
Quick reminder: number only, in µM, skip the unit.

Answer with reported IC50 of Nc1nc2c(ncn2COC(CO)CO)c(=O)[nH]1 [GANCICLOVIR]
29

Return IC50 for the following compound: Nc1nc(O)c2ncn(COC(CO)CCP(=O)(O)O)c2n1 (stereo not drawn)
200

Please list IC50 recorded for the compound Nc1nc2c(ncn2CO[C@@H](CO)CCP(=O)(O)O)c(=O)[nH]1
126

###

Let's look at some compounds and their measured pIC50.
- protocolSummary: In vitro toxicity against colony forming unit granulocyte macrophage (CFU-GM)
- Assay type: cell-based
- testParameters: human
Give only the number. pIC50 is defined as minus log10 of concentration in molar units.

Recall and state the measured pIC50 for Nc1nc2c(ncn2COC(CO)CO)c(=O)[nH]1 [GANCICLOVIR] .
4.72

Specify measured pIC50 for Nc1nc2c(ncn2CO[C@@H](CO)CCP(=O)(O)O)c(=O)[nH]1 .
4.02

# context switch: different compound, same pIC50
// fetch pIC50 given entry Nc1nc(O)c2ncn(COC(CO)CCP(=O)(O)O)c2n1 (stereo not drawn)
3.55
